test system: Mus musculus; test: Toxicity against ip dosed mouse after 14 days; format: organism-based; conditions: in vivo, 336 h
measured_parameter: Activity

// known answers, use as guide
[
  {
    "cpd_smiles": "CC(C)=CCC/C(C)=C/CC/C(C)=C/C=N/O",
    "test_target": "Mus musculus",
    "Activity": "Toxic"
  },
  {
    "cpd_smiles": "CC(C)=CCC/C(C)=C/CC/C(C)=C/CO",
    "test_target": "Mus musculus",
    "Activity": "Non-toxic"
  },
  {
    "cpd_smiles": "CC(C)=CCC/C(C)=C/CSc1nc[nH]n1",
    "test_target": "Mus musculus",
    "Activity": "Non-toxic"
  },
  {
    "cpd_smiles": "CC(C)=CCC/C(C)=C/CCc1nnn[nH]1",
    "test_target": "Mus musculus",
    "Activity": "Non-toxic"
  }
]

Field: next compound
Enquiry: # get_value(readout='Activity', item= CCCCCCCCCc1nnn[nH]1 )
Return: Non-toxic
